- Study System: T1, Recombinant human IL-18 (human, UniProt Q14116 37-193)
- T1 sequence: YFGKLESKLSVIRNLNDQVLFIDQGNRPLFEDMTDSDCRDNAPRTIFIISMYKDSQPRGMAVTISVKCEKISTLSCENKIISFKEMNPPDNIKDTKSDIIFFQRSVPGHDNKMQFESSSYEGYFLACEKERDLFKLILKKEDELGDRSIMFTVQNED
- Measurement Description: cell-based or functional assay
Endpoint Label: IC50, inhibition of IFN-γ release, human whole blood, recombinant human IL-18 (7 nM)
Give the number; nM is assumed, so skip it.

The measured IC50, inhibition of IFN-γ release, human whole blood, recombinant human IL-18 (7 nM) associated with MOR10579 (antibody, human IgG1, lambda, L234A L235A, V domains shown) VH: EVQLVQSGAEVKKPGSSVKVSCKASGGTFNSYAISWVRQAPGQGLEWMGWINPFYIGETFYAQKFQGRVTITADESTSTAYMELSSLRSEDTAVYYCARAAYHPLVFDNWGQGTLVTVSS VL: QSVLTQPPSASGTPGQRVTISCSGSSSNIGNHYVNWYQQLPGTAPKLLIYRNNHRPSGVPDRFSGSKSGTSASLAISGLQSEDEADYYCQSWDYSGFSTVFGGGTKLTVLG reads 5.6

The measured IC50, inhibition of IFN-γ release, human whole blood, recombinant human IL-18 (7 nM) associated with MOR13363 (antibody, human IgG1, kappa, L234A L235A, V domains shown) VH: QVQLLESGGGLVQPGGSLRLSCAASGFTFSSYAIHWVRQAPGKGLEWVSVISGEGSNTYYADSVKGRFTISRDNSKNTLYLQMNSLRAEDTAVYYCARVMIGYGFDYWGQGTLVTVSS VL: DIQMTQSPSSLSASVGDRVTITCRASQSIFNYLNWYQQKPGKAPKLLIYDSSTLQSGVPSRFSGSGSGTDFTLTISSLQPEDFATYYCLQYSGFLFTFGQGTKVEIKR reads 29.4

The measured IC50, inhibition of IFN-γ release, human whole blood, recombinant human IL-18 (7 nM) associated with MOR10222 (antibody, human IgG1, lambda, L234A L235A, V domains shown) VH: EVQLVQSGAEVKKPGSSVKVSCKASGGTFNSYAISWVRQAPGQGLEWMGNIIPMTGQTYYAQKFQGRVTITADESTSTAYMELSSLRSEDTAVYYCARAAYHPLVFDNWGQGTLVTVSS VL: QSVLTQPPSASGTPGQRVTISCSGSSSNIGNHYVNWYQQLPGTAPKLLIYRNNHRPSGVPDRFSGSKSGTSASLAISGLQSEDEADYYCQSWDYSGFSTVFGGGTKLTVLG reads 4.7

The measured IC50, inhibition of IFN-γ release, human whole blood, recombinant human IL-18 (7 nM) associated with MOR09464 (antibody, human IgG1, lambda, L234A L235A, V domains shown, also called MOR9464) VH: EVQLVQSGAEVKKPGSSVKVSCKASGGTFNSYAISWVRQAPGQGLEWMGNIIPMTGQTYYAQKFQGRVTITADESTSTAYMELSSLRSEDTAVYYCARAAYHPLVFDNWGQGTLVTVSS VL: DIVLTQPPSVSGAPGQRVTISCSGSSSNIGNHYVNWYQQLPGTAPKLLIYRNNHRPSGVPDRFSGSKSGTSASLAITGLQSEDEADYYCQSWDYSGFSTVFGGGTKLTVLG reads 3.6

Hello, the source for this data is patent US20140112915A1, in case you need it.
